Hey, just so you know, these numbers are from patent US20170342126A1.

- measured-on: T1, HLA-DR DRB1*0404 (human)
- T1 chain 1: not shown
- T1 chain 2: not shown
- test-details: radioligand competition, purified HLA-DR
- details: remark: other sources report otherwise
quantity: pIC50
pIC50 is a log-scale quantity: -log10 of the concentration expressed in molar.

Exercise: Item under review: VCGIQNSVSANRSDP [Peptide 9019.0135] . Reported pIC50?
Key: 7.59
